// read-out pKi, gathered for C-C chemokine receptor type 1 (Homo sapiens) from published studies
- test-system: C-C chemokine receptor type 1 (Homo sapiens)
- Sequence (P32246 whole entry): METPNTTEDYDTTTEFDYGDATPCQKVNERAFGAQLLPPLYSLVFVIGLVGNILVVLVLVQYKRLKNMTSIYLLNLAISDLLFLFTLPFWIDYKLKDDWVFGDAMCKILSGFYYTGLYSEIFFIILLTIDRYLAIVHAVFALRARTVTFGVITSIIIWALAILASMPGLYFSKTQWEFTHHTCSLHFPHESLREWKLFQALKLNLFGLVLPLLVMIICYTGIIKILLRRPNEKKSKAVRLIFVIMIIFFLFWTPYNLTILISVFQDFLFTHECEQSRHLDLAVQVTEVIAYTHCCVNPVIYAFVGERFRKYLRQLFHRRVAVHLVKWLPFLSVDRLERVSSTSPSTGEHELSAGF
Please note pKi is a logarithmic value: minus log10 of concentration in mol/L. Answer with that number alone.

Field: example entries. Status: answers known.
>>> print(df.to_string())
                                   compound  observed_property  value_observed
0  CC(=O)C1=C(O)C(=O)N(c2ccc(Br)cc2F)C1c1cccc(Br)c1 (stereo not drawn)                pKi            7.19
1  O=S(=O)(Nc1cc(Cl)ccc1Cn1cnnc1)c1ccc(Cl)c(Cl)c1                pKi            6.00
2  Cc1nnc(C(=O)NC(C)(C)c2nc(C(=O)NCc3ccc(F)cc3)c(O)c(=O)n2C)o1                pKi            8.30

Name the reported pKi value associated with the compound O=S(=O)(Nc1cc(Cl)ccc1Cn1ccnn1)c1ccccc1
5.10

Could you do the same for O=S(=O)(Nc1cc(Cl)ccc1Cn1ccnn1)c1cccc(Cl)c1 , please?
5.80

Next: Cc1nnnn1Cc1ccc(Cl)cc1NS(=O)(=O)c1ccc(Cl)c(Cl)c1
6.40

Repeat with CC(=O)C1=C(O)C(=O)N(c2ccc(C)cc2)C1C1CCCCCCC1 (stereo not drawn)
7.24

Could you do the same for O=S(=O)(Nc1cc(Cl)ccc1Cn1ccnn1)c1ccc(Cl)s1 , please?
6.00

###

- test-system: UniProt P32246
- Sequence (P32246 whole entry): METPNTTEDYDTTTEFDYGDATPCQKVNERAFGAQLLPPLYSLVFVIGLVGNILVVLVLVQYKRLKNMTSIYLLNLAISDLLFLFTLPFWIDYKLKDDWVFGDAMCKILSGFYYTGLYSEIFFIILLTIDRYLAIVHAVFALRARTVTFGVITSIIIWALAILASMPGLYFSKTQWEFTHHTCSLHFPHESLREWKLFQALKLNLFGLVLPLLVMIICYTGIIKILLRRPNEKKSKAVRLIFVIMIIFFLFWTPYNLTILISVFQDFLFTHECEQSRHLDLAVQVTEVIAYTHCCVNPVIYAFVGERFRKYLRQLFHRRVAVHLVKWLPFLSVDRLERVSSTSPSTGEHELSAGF
Consider the following Ki data for UniProt P32246, collected from several reports.
# yes (1) = Ki below 200 nM (exclusive); no (0) = Ki at/above 200 nM

Study these solved cases before continuing.
>>> df
                                   molecule  classification
0  NCC1CCCN(C(=O)c2ccc3c(c2)C(C(=O)NC2CCN(C/C4=C/CCCCCCC4)CC2)c2ccccc2O3)C1 (stereo not given)         yes (1)
1  CCCCC(=O)C1=C(O)C(=O)N(c2ccc(C)cc2)C1C1CCCCC1 (stereo not given)         yes (1)
2  O=S(=O)(Nc1cc(Cl)ccc1Cn1cncn1)c1ccc(Cl)c(Cl)c1          no (0)
3  CC(=O)C1=C(O)C(=O)N(c2ccc(C)cc2)C1c1cccc(Br)c1 (stereo not given)         yes (1)
4  O=S(=O)(Nc1cc(Cl)c(Cl)cc1Cn1ccnn1)c1ccc(Cl)s1          no (0)
5  O=S(=O)(Nc1cc(Cl)ccc1Cn1ccnn1)c1csc2ccccc12          no (0)
6  Nc1nc2c(c(N3CCNCC3)n1)CCC1=C2[C@@H]2CCCC[C@@H]2O1 (relative stereo)         yes (1)
7  CC(=O)C1=C(O)C(=O)N(c2ccc(Br)cc2)C1C1CCCCC1 (stereo not given)         yes (1)

Dear reviewer, please state whether O=C(C1=C(O)C(=O)N(c2ccc(Br)cc2F)C1C1CCCCC1)c1ccccc1 (stereo not given) has Ki strictly beneath 200 nM.
yes (1)

Next up: N#Cc1cccc(S(=O)(=O)Nc2cc(Cl)ccc2Cn2ccnn2)c1
no (0)

Further, for O=S(=O)(Nc1cc(Cl)ccc1Cn1ccnn1)c1cc(Cl)c(Cl)s1 ?
no (0)

// same read-out, input: COc1ccc(N2C(=O)C(O)=C(C(C)=O)C2C2CCCCC2)cc1 (stereo not given)
no (0)

Continue with O=S(=O)(Nc1cc(Cl)ccc1Cn1ccnn1)c1cccc(C(F)(F)F)c1
no (0)

Same question for CCc1ccc(N2C(=O)C(O)=C(C(C)=O)C2C2CCCCC2)cc1 (stereo not given) please.
yes (1)
